These entries and their values trace back to the Immune Epitope Database (IEDB).

molecular target: HLA-B*18:01; assay: IEDB peptide-MHC binding, purified MHC/competitive/fluorescence; filed as Kd, often an IC50 or EC50 that approximates it; bounds were set here for any values at or beyond the usual limits of such assays; conditions: source organism: Plasmodium yoelii yoelii
pKd: −log10 of the molar value.
recorded.endpoint: pKd

Report pKd for `KPPRGVLLY` tested on HLA-B*18:01.
≤ 4.70

###

target: HLA-A*02:02; assay: IEDB peptide-MHC binding, purified MHC/competitive/radioactivity; bounds were set here for any values at or beyond the usual limits of such assays; settings: source organism: Hepatitis C virus (isolate H77)
recorded.endpoint: pIC50
Give bare numbers, as −log10 of the molar value.

Report pIC50 for `KLVGLGLNAV` tested on HLA-A*02:02.
7.85

###

biological target: HLA-B*15:01; test: IEDB peptide-MHC binding, purified MHC/competitive/fluorescence; filed as Kd, often an IC50 or EC50 that approximates it; bounds were set here for any values at or beyond the usual limits of such assays; settings: source organism: Giardia intestinalis ATCC 50581
recorded.endpoint: Kd

Could you tell me which Kd is on file for `GLYLYRFHV` ?
≥ 20 µM

###

target: HLA-A*23:01; assay: IEDB peptide-MHC binding, purified MHC/competitive/radioactivity; filed as Kd, often an IC50 or EC50 that approximates it; bounds were set here for any values at or beyond the usual limits of such assays; details: source organism: Dengue virus 4 Philippines/H241/1956
recorded.endpoint: Kd (nM)
Answers are plain numbers, in nM.

Report Kd for `CYSQVNPTTL` tested on HLA-A*23:01.
1330

###

target: HLA-B*18:01; test: IEDB peptide-MHC binding, purified MHC/competitive/fluorescence; filed as Kd, often an IC50 or EC50 that approximates it; bounds were set here for any values at or beyond the usual limits of such assays; details: source organism: Homo sapiens
pKd: −log10 of the molar value.
recorded.endpoint: pKd

>>> value_observed("FMDPGIFPR")
"≤ 4.70"

Could you tell me which pKd is on file for `LTDSSTLLV` ?
≤ 4.70

###

target: HLA-B*46:01; test: IEDB peptide-MHC binding, purified MHC/competitive/fluorescence; filed as Kd, often an IC50 or EC50 that approximates it; bounds were set here for any values at or beyond the usual limits of such assays; details: source organism: Plasmodium yoelii yoelii
recorded.endpoint: Kd

Could you tell me which Kd is on file for `KPPRGVLLY` ?
≥ 20 µM

###

target: HLA-A*68:01; assay: IEDB peptide-MHC binding, purified MHC/competitive/radioactivity; filed as Kd, often an IC50 or EC50 that approximates it; bounds were set here for any values at or beyond the usual limits of such assays; conditions: source organism: Dengue virus 4 Philippines/H241/1956
recorded.endpoint: Kd
A complete answer gives the number and then names the unit.

Here is how some sequences turned out for Kd.
>>> value_observed("ATTILTPMLR")
"0.284 µM"
>>> value_observed("QAAVLMGLGK")
"0.0607 µM"
>>> value_observed("TTILDVDLR")
"0.0358 µM"

Could you tell me which Kd is on file for `LVAPSYGMR` ?
0.00384 µM

###

biological target: HLA-B*51:01; assay: IEDB peptide-MHC binding, purified MHC/competitive/radioactivity; filed as Kd, often an IC50 or EC50 that approximates it; bounds were set here for any values at or beyond the usual limits of such assays; conditions: source organism: Triticum aestivum
recorded.endpoint: pKd
Answers are plain numbers, as −log10 of the molar value.

>>> value_observed("LPYPQPQLPY")
8.04
>>> value_observed("IPCRDVVL")
7.17

Next up:
Report pKd for `QPFPSQQPYL` tested on HLA-B*51:01.
7.99

###

target: HLA-B*58:01; experiment: IEDB peptide-MHC binding, purified MHC/direct/fluorescence; filed as Kd, often an IC50 or EC50 that approximates it; bounds were set here for any values at or beyond the usual limits of such assays; conditions: source organism: Francisella tularensis subsp. holarctica LVS
recorded.endpoint: Kd

Could you tell me which Kd is on file for `EFKRRLKDL` ?
≥ 20 µM

###

molecular target: HLA-B*51:01; assay: IEDB peptide-MHC binding, purified MHC/competitive/fluorescence; filed as Kd, often an IC50 or EC50 that approximates it; bounds were set here for any values at or beyond the usual limits of such assays; conditions: source organism: Giardia lamblia ATCC 50803
recorded.endpoint: Kd

Could you tell me which Kd is on file for `RIYDPLWFQ` ?
≥ 20 µM

###

target: HLA-A*30:01; assay: IEDB peptide-MHC binding, purified MHC/competitive/radioactivity; filed as Kd, often an IC50 or EC50 that approximates it; bounds were set here for any values at or beyond the usual limits of such assays; conditions: source organism: Dengue virus 2 Jamaica/1409/1983
recorded.endpoint: Kd (nM)
One number for each entry, in nM.

>>> value_observed("KVVRVQRPTP")
122

Next up:
Could you tell me which Kd is on file for `DVFFTPPEK` ?
1300

###

biological target: HLA-C*03:03; experiment: IEDB peptide-MHC binding, purified MHC/direct/fluorescence; filed as Kd, often an IC50 or EC50 that approximates it; bounds were set here for any values at or beyond the usual limits of such assays; details: source organism: Mycobacterium tuberculosis variant bovis BCG str. Pasteur 1173P2
pKd: −log10 of the molar value.
recorded.endpoint: pKd

Could you tell me which pKd is on file for `ALMDYGFRV` ?
≤ 4.70

###

So I've got a bunch of sequences here, and I need their Kd values.
target: HLA-A*30:01; test: IEDB peptide-MHC binding, purified MHC/competitive/radioactivity; filed as Kd, often an IC50 or EC50 that approximates it; bounds were set here for any values at or beyond the usual limits of such assays; conditions: source organism: Dengue virus 1 Brazil/97-11/1997
Answers are plain numbers, in µM.

Here is how some sequences turned out for Kd.
>>> value_observed("KQWFLDLPLP")
9.59
>>> value_observed("LVKLHSGKDV")
5.94

Next up:
Could you tell me which Kd is on file for `ALLATSIFK` ?
0.544

###

biological target: HLA-A*01:01; assay: IEDB peptide-MHC binding, purified MHC/direct/fluorescence; filed as Kd, often an IC50 or EC50 that approximates it; bounds were set here for any values at or beyond the usual limits of such assays; conditions: source organism: Influenza A virus (A/mallard/NZ/1/97(H5N2))
recorded.endpoint: Kd

Could you tell me which Kd is on file for `IAGFIEGGW` ?
≥ 20 µM

###

biological target: HLA-B*27:03; assay: IEDB peptide-MHC binding, purified MHC/competitive/fluorescence; filed as Kd, often an IC50 or EC50 that approximates it; bounds were set here for any values at or beyond the usual limits of such assays; conditions: source organism: Cryptosporidium parvum Iowa II
recorded.endpoint: Kd

Report Kd for `LTAPCDIYV` tested on HLA-B*27:03.
≥ 20 µM

###

target: HLA-A*26:01; experiment: IEDB peptide-MHC binding, purified MHC/direct/fluorescence; filed as Kd, often an IC50 or EC50 that approximates it; bounds were set here for any values at or beyond the usual limits of such assays; conditions: source organism: Aggregatibacter actinomycetemcomitans
recorded.endpoint: Kd

Could you tell me which Kd is on file for `KYDDRIQSQ` ?
≥ 20 µM

###

biological target: HLA-B*35:01; test: IEDB peptide-MHC binding, purified MHC/direct/fluorescence; filed as Kd, often an IC50 or EC50 that approximates it; bounds were set here for any values at or beyond the usual limits of such assays; conditions: source organism: Yersinia pestis
recorded.endpoint: pKd
Numbers only, as −log10 of the molar value.

Could you tell me which pKd is on file for `WLWVSSSDM` ?
7.65

###

target: HLA-B*18:01; experiment: IEDB peptide-MHC binding, purified MHC/direct/fluorescence; filed as Kd, often an IC50 or EC50 that approximates it; bounds were set here for any values at or beyond the usual limits of such assays; conditions: source organism: Vibrio parahaemolyticus
pKd: −log10 of the molar value.
recorded.endpoint: pKd

Could you tell me which pKd is on file for `VFMDNAFKK` ?
≤ 4.70

###

target: HLA-A*02:02; test: IEDB peptide-MHC binding, purified MHC/competitive/radioactivity; filed as Kd, often an IC50 or EC50 that approximates it; bounds were set here for any values at or beyond the usual limits of such assays; conditions: source organism: Vaccinia virus WR
So I've got a bunch of sequences here, and I need their Kd values.
One number for each entry, in nM.

Here is how some sequences turned out for Kd.
>>> value_observed("IISTDQDTML")
451
>>> value_observed("RQDYRRSINV")
1010
>>> value_observed("IVAMLLTHGA")
1160
>>> value_observed("PTWLGAAITL")
1360
>>> value_observed("AVTLNRIKIA")
1720
>>> value_observed("YVNAILYQI")
2050

Required: Kd, one value per sequence below.
1. GLESIEQNLT
2. QQFANVISKI
3. LLNETAKVI
4. DMLLNVQTL

1. 7020
2. 51.5
3. 319
4. 7400
